# Method notes: Metabolic stability in human liver microsomes
# Experimental parameters: 1 μM substrate, 0.5 mg/mL microsomes, 30 min
% Remaining 30 min for assorted molecules
Property: % Remaining 30 min (%)

> print(dat)
                            chemical.string  unit.info  observed
1  O=C(c1ccc(F)cc1)N(c1ccc(O)cc1)c1ccc(O)cc1          %       120
2  O=C(c1ccc(O)cc1)N(c1ccc(O)cc1)c1ccc(O)cc1          %       118
3  O=C(c1ccccc1)N(c1ccc(O)cc1)c1ccc(OCCN2CCCCC2)cc1          %        95
4  Cl.O=C(c1ccc(F)cc1)N(c1ccc(O)cc1)c1ccc(OCCN2CCCCC2)cc1          %        86
